System: D(3) dopamine receptor (Homo sapiens) | Read-out: Ki | Origin: multiple publications
observable: Ki

| smiles_repr | target_of_assay | result |
| --- | --- | --- |
| CCCNCCOc1ccc(NS(=O)(=O)c2ccc(C(C)C)cc2)cn1 | D(3) dopamine receptor (Homo sapiens) | 0.01 to 0.05 µM |
| COc1cccc(N2CCN(C(=O)NCCCCN3CCN(c4cc(C(F)(F)F)nc(C(C)(C)C)n4)CC3)CC2)c1 | D(3) dopamine receptor (Homo sapiens) | 0.013 µM |
| CCCN1CC[C@@H](c2ccc(NS(=O)(=O)c3ccc(-c4csc(C)n4)s3)cc2)C1 | D(3) dopamine receptor (Homo sapiens) | < 0.001 µM |
| CC(C)(C)c1nc(N2CCN(CCCCNC(=O)c3cn4c(CO)cccc4n3)CC2)cc(C(F)(F)F)n1 | D(3) dopamine receptor (Homo sapiens) | 0.0454 µM |

----------
System: D(3) dopamine receptor (Homo sapiens) | Read-out: pKi | Origin: multiple publications
pKi: −log10 of the molar value.

| compound | inequality_operator | pKi |
| --- | --- | --- |
| CC(=O)N[C@H]1CC[C@H](CCN2CCN(c3cc(CCO)nc(C(C)(C)C)n3)[C@H](C)C2)CC1 | > | 7.30 |
| CCCN1CCN(c2ccc(NS(=O)(=O)c3ccc(Br)cc3)cn2)CC1 | = | 7.67 |
| Cc1cccc(N2CCN(CCCCn3cc(C)c(=O)[nH]c3=O)CC2)c1C | = | 8.62 |
| COCCc1cc(N2CCN(CC[C@H]3C[C@H](NC=O)C3)CC2)nc(C(C)(C)C)n1 | > | 7.30 |
| C=CCN1CC[C@H](c2ccc(NS(=O)(=O)c3ccc(C(C)C(F)(F)F)cc3)cc2)C1 (stereo partly shown) | = | 7.99 |
| COCCc1cc(N2CCN(CC[C@H]3CC[C@H](NC(C)=O)CC3)[C@@H](C)C2)nc(C(C)(C)C)n1 | > | 8.00 |
| O=C(NCCCCN1CCN(c2ccnc3cc(Cl)ccc23)CC1)N1CCN(c2ccccc2)CC1 | = | 7.57 |
| CC(C)c1cc(N2CCN(CCC3CCC(NC(=O)[C@H]4CC[C@H](O)CC4)CC3)C[C@@H]2C)nc(C(C)(C)C)n1 (stereo partly shown) | > | 8.00 |
| Cc1cn(CCCCN2CCN(Cc3ccc(Cl)cc3Cl)CC2)c(=O)[nH]c1=O | = | 8.05 |
| CC(C)(C)c1nc(N2CCN(CCCCNC(=O)N3CCC(Oc4ccccc4)CC3)CC2)cc(C(F)(F)F)n1 | = | 7.36 |
| CCC(=O)c1ccc2c(c1)CN(CCCSc1nnc(-c3cc4ccccc4s3)n1C)CC2 | = | 8.59 |
| CCCN1CC(c2ccc(NS(=O)(=O)c3ccc(CCCF)cc3)cc2)C1 | = | 8.14 |
| COCCc1cc(N2CCN(CC[C@H]3CC[C@H](NC=O)CC3)C[C@H]2C)nc(C(C)(C)C)n1 | > | 7.30 |
| COCCc1cc(N2CCN(CC[C@H]3CC[C@@H](NC(=O)C4CC(O)(C(F)(F)F)C4)CC3)CC2)nc(C(C)(C)C)n1 (relative stereo) | > | 7.30 |

----------
System: UniProtKB P35462 | Read-out: Ki | Origin: multiple publications
// classify: if (Ki < 9 nM) True else False

| molecule | assigned_label |
| --- | --- |
| CC(C)(C)c1nc(N2CCN(CCCCn3ccc(-c4ccc(F)cc4)nc3=O)CC2)cc(C(F)(F)F)n1.Cl | True |
| CCCN1CC(c2ccc(NS(=O)(=O)c3ccc([C@H](C)CF)cc3)cc2)C1 | True |
| CCCN[C@H]1CCc2cc(NS(=O)(=O)c3ccc(C(C)C(F)(F)F)cc3)ccc2C1 (mixture of isomers) | True |
| Cc1nnc2n1CCN(C(=O)NCCCCN1CCN(c3cc(C(F)(F)F)nc(C(C)(C)C)n3)CC1)C2 | False |
| CCCc1cc(N2CCN(CCCCn3ccc(O)nc3=O)CC2)nc(C(C)(C)C)n1 | True |
| CC(=O)N[C@H]1CC[C@H](CCN2CCN(c3noc4ccncc34)CC2)CC1 | False |
| CCCNCCOc1ccc(NS(=O)(=O)c2ccc(-c3cnco3)cc2)c(OC)n1 | True |
| CCCNCC1CCCc2cc(NS(=O)(=O)c3ccc(C(C)C)cc3)ccc21 (centres unmarked) | True |
| C=CCN1CCN(c2ccc(NS(=O)(=O)c3ccc(C(C)C)cc3)cn2)CC1 | True |
| COc1ccc2[nH]c3c(c2c1)CN(C(=O)NCCCCN1CCN(c2cc(C(F)(F)F)nc(C(C)(C)C)n2)CC1)CC3 | False |
| CCCNCC1Cc2cc(NS(=O)(=O)c3ccc(C(C)C)cc3)ccc2N1 (centres unmarked) | False |
| CCCN1CC[C@@H](c2ccc(NS(=O)(=O)c3ccc(N4CCCC4)cc3)cc2)C1 | True |
| CCCN1C[C@@H]2C[C@@H](c3ccc(NS(=O)(=O)c4ccc(C(F)(F)F)cc4)cc3)[C@@H]2C1 | True |
| O=C(NCCCCN1CCN(c2ccnc3ccccc23)CC1)N1CCN(c2ccccc2)CC1 | False |
| Cn1cnnc1SCCCN1CCN(c2cc(C3(C)CC3)nc(C(C)(C)C)n2)CC1 | True |
| C=CCN1CCC[C@H]2c3ccc(NS(=O)(=O)c4ccc(C(C)C)cc4)cc3CC[C@@H]21 | True |
| Cc1cn(CCCCN2CCN(c3cc(C(F)(F)F)nc(C(C)(C)C)n3)CC2)c(=O)nc1S | True |
| CC(=O)N[C@H]1CC[C@H](CCN2CCN(c3noc4ccc(F)c(F)c34)CC2)CC1 | True |
| CCCN1CC[C@@H](c2ccc(NS(=O)(=O)c3ccc(N4CCC4)cc3)cc2)C1 | True |
| CC(C)(C)c1nc(N2CCN(CCCCNC(=O)N3CCC(Cc4ccccc4)CC3)CC2)cc(C(F)(F)F)n1 | False |
| CCCNCCOc1ccc(NS(=O)(=O)c2ccc(C(C)C)cc2)c(OC)n1 | True |
| Cc1cn(CCCCN2CCN(Cc3ccc(F)cc3Cl)CC2)c(=O)[nH]c1=O | False |
| CCCN[C@H]1Cc2ccc(N(C)S(=O)(=O)c3ccc(C(C)C)cc3)cc2C1 | True |
| CCCN1CC(c2ccc(NS(=O)(=O)c3ccc(CC(F)(F)F)cc3)cc2)C1 | False |
